Listed here are compounds together with their documented Efficacy (GABA) %.
Target: h-GABA-A α5β3γ2 (Homo sapiens, UniProt P18507+P31644)
Sequence (P31644 32-462): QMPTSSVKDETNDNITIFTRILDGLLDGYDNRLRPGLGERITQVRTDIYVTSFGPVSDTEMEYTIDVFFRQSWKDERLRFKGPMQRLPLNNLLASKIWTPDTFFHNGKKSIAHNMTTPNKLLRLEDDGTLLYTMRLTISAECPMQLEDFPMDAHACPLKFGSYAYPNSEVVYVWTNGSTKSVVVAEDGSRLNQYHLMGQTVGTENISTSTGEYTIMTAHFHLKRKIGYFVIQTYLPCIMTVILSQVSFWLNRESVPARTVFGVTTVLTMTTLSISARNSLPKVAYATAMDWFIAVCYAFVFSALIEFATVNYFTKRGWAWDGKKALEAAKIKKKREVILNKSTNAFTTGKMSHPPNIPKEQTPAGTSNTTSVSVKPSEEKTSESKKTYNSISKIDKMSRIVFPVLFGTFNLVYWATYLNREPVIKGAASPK
Sequence (P28472 26-473 partner): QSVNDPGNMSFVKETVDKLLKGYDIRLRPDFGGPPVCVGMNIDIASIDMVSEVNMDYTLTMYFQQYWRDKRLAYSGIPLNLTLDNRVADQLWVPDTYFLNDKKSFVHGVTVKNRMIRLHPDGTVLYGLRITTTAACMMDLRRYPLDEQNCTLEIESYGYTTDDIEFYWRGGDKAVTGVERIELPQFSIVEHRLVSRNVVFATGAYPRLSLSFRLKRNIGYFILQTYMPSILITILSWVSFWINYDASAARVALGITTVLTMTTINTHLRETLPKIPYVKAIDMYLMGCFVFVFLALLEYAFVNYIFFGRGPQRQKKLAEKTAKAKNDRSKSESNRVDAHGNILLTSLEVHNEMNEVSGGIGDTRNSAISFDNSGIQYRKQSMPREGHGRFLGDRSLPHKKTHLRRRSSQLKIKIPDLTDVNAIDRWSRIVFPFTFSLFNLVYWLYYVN
Sequence (P18507 40-475): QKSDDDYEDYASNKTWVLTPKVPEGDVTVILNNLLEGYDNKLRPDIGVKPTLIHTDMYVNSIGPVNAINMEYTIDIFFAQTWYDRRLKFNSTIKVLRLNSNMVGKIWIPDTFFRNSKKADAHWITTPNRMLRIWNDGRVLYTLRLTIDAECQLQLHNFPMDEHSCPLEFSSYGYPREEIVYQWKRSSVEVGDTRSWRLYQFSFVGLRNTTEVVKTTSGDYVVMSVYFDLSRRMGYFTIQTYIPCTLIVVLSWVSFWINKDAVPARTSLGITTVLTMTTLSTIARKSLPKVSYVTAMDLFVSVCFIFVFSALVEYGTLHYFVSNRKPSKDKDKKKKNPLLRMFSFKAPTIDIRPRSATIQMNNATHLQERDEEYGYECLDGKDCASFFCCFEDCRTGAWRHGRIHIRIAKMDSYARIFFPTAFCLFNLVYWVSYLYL
Assay: Two-electrode voltage clamp electrophysiology in Xenopus laevis oocytes expressing GABAA receptors, modulation of GABA EC20 current
Assay type: cell-based
Set-up: host or cells: Xenopus laevis oocytes micro-injected with RNA transcripts of the subunits
Conditions: % modulation of GABA EC20 = 100*(Fold increase-1); Table 1
Please reply with the bare figure in % and do not write the unit itself.

Below are worked cases with known answers.
1. COc1ncc(-c2cnn(Cc3c(-c4ccc(C)nc4)noc3C)c(=O)c2)cc1Cl [Example 188] ... 210
2. CO[C@H]1CN(c2cnn(Cc3c(-c4ccc(C)nc4)noc3C)c(=O)c2)[C@H]1C [Example 197] ... 131
3. Cc1ncc(-c2noc(C)c2Cn2ncc(N(C)C)cc2=O)cc1F [Example 102] ... 86
4. CC(=O)N(C)[C@H]1CCN(c2cnn(Cc3c(-c4ccc(C)nc4)noc3C)c(=O)c2)C1 [Example 1] ... 63
5. Cc1onc(-c2ccc(F)cc2)c1Cn1ncc(N2CCN(C(=O)C3(C)CC3)CC2)cc1=O [Example 15] ... 120
6. C[C@@H]1CN(c2cnn(Cc3conc3-c3ccc(C(F)(F)F)nc3)c(=O)c2)C[C@H](C)O1 [Example 72] ... 167
7. Cc1onc(-c2ccc(Cl)nc2)c1Cn1ncc(N2CCC3(CCCCO3)CC2)cc1=O [Example 333] ... 190
8. Cc1onc(-c2ccc(Cl)nc2)c1Cn1ncc(N2CCC3(CC2)CC(F)CCO3)cc1=O (single isomer, unassigned) [Example 331] ... 159

Please report Efficacy (GABA) % for the following compound: CO[C@@H]1COC2(C1)CN(c1cnn(Cc3c(-c4ccc(C)nc4)noc3C)c(=O)c1)C2 [Example 133]
172

For the compound Cc1onc(-c2ccc(Cl)nc2)c1Cn1ncc(N2CCC3(CC2)COC3)cc1=O [Example 258] , give its reported Efficacy (GABA) %.
126

Look up Efficacy (GABA) % of Cc1ccc(-c2noc(C)c2Cn2ncc(N3CCC(C(=O)NC4CC4)CC3)cc2=O)cn1 [Example 27] and report it.
100

Please give the documented Efficacy (GABA) % of Cc1ccc(-c2noc(C)c2Cn2ncc(N3CCN(C(C)C)[C@@H](C)C3)cc2=O)cn1 [Example 184]
125

Give the value of Efficacy (GABA) % reported for the following: Cc1onc(-c2ccc(Cl)nc2)c1Cn1ncc(N2CC(OC(F)(F)F)C2)cc1=O [Example 251]
83

Return reported Efficacy (GABA) %. Input compound: Cc1ccc(-c2noc(C)c2Cn2ncc(N3CC(Oc4ccccc4)C3)cc2=O)cn1 [Example 94]
136

Output Efficacy (GABA) % of Cc1ccc(-c2noc(C)c2Cn2ncc(N3CC4(CCCCO4)C3)cc2=O)cn1 [Example 216]
103

Look up and report measured Efficacy (GABA) % for this entry: Cc1ccc(-c2noc(C)c2Cn2ncc(-c3ccc(OC(C)C)cc3)cc2=O)cn1 [Example 115]
87
